For each of the compounds below, state its tplateau,brain (plateau time for brain channel).
test system: human BBB-on-a-chip (hBMEC, HBVP, NHA); experiment: BBB-on-a-chip permeability, apical to basolateral (blood to brain channel), LC-MS/MS; conditions: time to reach predicted 90% Css
Answers are plain numbers, in h.

>  <compound>
CNCCCN1c2ccccc2CCc2ccccc21

>  <unitsSymbol>
h

>  <observedValue>
310.22

$$$$

Kindly give each listed record's tplateau,brain (plateau time for brain channel).
1. CCc1nn(CCCN2CCN(c3cccc(Cl)c3)CC2)c(=O)n1CCOc1ccccc1
2. NC(=O)N1c2ccccc2C=Cc2ccccc21 [Carbamazepine, carbamazepine]
3. Nc1nc(OC(c2ccc(-c3cccc(F)c3)cc2)C(F)(F)F)cc(-c2ccc(C[C@H](N)C(=O)O)cc2)n1 (stereo partly shown)

Reply text:
340.10
29.41
1.42
